# Test system: NCI-H226 lung
# Test Protocol: NCI tumour cell line growth inhibition, 48 h
I'd appreciate it if you could supply TGI values for the items below.

Here is how some molecules turned out for TGI.
{"Molecule": "Cc1c(C#N)c(N)[nH]c(=S)c1C#N", "System Name": "NCI-H226 lung", "TGI": "> 100 µM"}
{"Molecule": "CN(C)CC1CCCC(CN2CCCCC2)C1=O (stereo unspecified)", "System Name": "NCI-H226 lung", "TGI": "43.1 µM"}

Value sought for every listed molecule: TGI.
1. C1=Nc2ccc(cc2)N=Cc2ccccc2OCc2cccc(n2)COc2ccccc21
2. Cc1cc(N)ccc1N=Nc1ccc(S(=O)(=O)CCOS(=O)(=O)O)cc1
3. CC1(C)Oc2ccc3c(=O)c(-c4ccccc4)c(-c4ccccc4)oc3c2C1C(=O)O (stereo unspecified)
4. CC1=C(C)CC(C#N)(C#N)C(C#N)(C#N)C1
5. CC(C)CCSC1=CC(=O)c2ccccc2C1=O
6. COC(=O)[C@H]1[C@@H](O)[C@@]2(O)c3c(OC)cc(O[C@@H]4O[C@@H]([C@H](O)CO)CO[C@H]4OC)cc3O[C@@]2(c2ccc(OC)cc2)[C@@H]1c1ccccc1
7. CCCCOCn1c(=O)[nH]c(=O)c2ccccc21
8. C#CCSc1n[nH]c(-c2ccco2)n1

["> 100 µM", "15.6 µM", "> 100 µM", "> 10 µM", "32.8 µM", "0.078 µM", "> 100 µM", "> 100 µM"]

Reported TGI ( CCCCCCCCCCCCCCCCOCC(CN(C)CCN(C)C)OCCCCCCCCCCCCCCCC (stereo unspecified) ) = > 100 µM
